Field: phospho-S6 immunofluorescence (z-score). Provide a value for each of the molecules that follow.
# System: MDA-MB-468
# assay-info: phospho-S6 immunofluorescence (DAPI-normalised), per-plate z-score; higher = higher phospho-S6 signal (less pathway suppression)
# reported-conditions: co-treatment: vehicle; 24 h
Where a name gives a salt, the structure may show the parent alone.
Write the number on its own, no unit after it.

Entry CC(COc1ccccc1)N(CCCl)Cc1ccccc1 (stereo not drawn) [Phenoxybenzamine (hydrochloride)] (compound 10 µM) ; assay system MDA-MB-468; phospho-S6 immunofluorescence (z-score) recorded at 0.39

Entry CNC[C@H](O)c1cccc(O)c1 [(R)-(-)-Phenylephrine (hydrochloride)] (compound 10 µM) ; assay system MDA-MB-468; phospho-S6 immunofluorescence (z-score) recorded at 1.13

Entry COc1nc(C)nc(Cl)c1NC1=NCCN1 [Moxonidine] (compound 10 µM) ; assay system MDA-MB-468; phospho-S6 immunofluorescence (z-score) recorded at 0.7

Entry CN1CCN(CCCN2c3ccccc3Sc3ccc(C(F)(F)F)cc32)CC1 [Trifluoperazine (dihydrochloride)] (compound 10 µM) ; assay system MDA-MB-468; phospho-S6 immunofluorescence (z-score) recorded at -4.02

Entry C[C@H](NC(=O)C(C)(C)Oc1ccc(C(F)(F)F)cn1)[C@@H](Cc1ccc(Cl)cc1)c1cccc(C#N)c1 [Taranabant] (compound 10 µM) ; assay system MDA-MB-468; phospho-S6 immunofluorescence (z-score) recorded at -2.4

Entry N=C(N)NCCC[C@@H](NC(=O)[C@@H]1CCCN1C(=O)[C@@H]1CSSCCC(=O)N[C@@H](Cc2ccc(O)cc2)C(=O)N[C@@H](Cc2ccccc2)C(=O)N[C@@H](CCC(N)=O)C(=O)N[C@@H](CC(N)=O)C(=O)N1)C(=O)NCC(N)=O [Desmopressin (Acetate)] (compound 10 µM) ; assay system MDA-MB-468; phospho-S6 immunofluorescence (z-score) recorded at -0.41

Entry Cc1c(C(=O)NN2CCCCC2)nn(-c2ccc(Cl)cc2Cl)c1-c1ccc(I)cc1 (compound 10 µM) ; assay system MDA-MB-468; phospho-S6 immunofluorescence (z-score) recorded at -2.82

Entry Nc1nc(-c2nn(Cc3ccccc3F)c3ncccc23)ncc1C1CC1 (compound 10 µM) ; assay system MDA-MB-468; phospho-S6 immunofluorescence (z-score) recorded at -0.52

---

# System: MDA-MB-468
# assay-info: phospho-S6 immunofluorescence (DAPI-normalised), per-plate z-score; higher = higher phospho-S6 signal (less pathway suppression)
# reported-conditions: co-treatment: vehicle; 24 h
Counter-ions that a name gives are not always drawn.
measure: phospho-S6 immunofluorescence (z-score)

// phospho-S6 immunofluorescence (z-score) value for CN(C)CCC(c1ccc(Cl)cc1)c1ccccn1 (stereo not drawn) [Chlorpheniramine (maleate)] (compound 10 µM) : -8.97

// phospho-S6 immunofluorescence (z-score) value for CC(=O)OCC(=O)[C@@]1(O)CC[C@H]2[C@@H]3CCC4=CC(=O)CC[C@]4(C)[C@H]3[C@@H](O)C[C@@]21C [Hydrocortisone (acetate)] (compound 10 µM) : -0.24

// phospho-S6 immunofluorescence (z-score) value for CC(C)N(CCCCOCC(=O)O)c1cnc(-c2ccccc2)c(-c2ccccc2)n1 (compound 10 µM) : 0.56

// phospho-S6 immunofluorescence (z-score) value for CN1[C@@H]2CC[C@H]1C[C@@H](OC(c1ccccc1)c1ccccc1)C2 [Benztropine (mesylate)] (compound 10 µM) : 0.29

// phospho-S6 immunofluorescence (z-score) value for O=C(O[C@@H]1C[C@@H]2C[C@H]3C[C@H](C1)N2CC3=O)c1c[nH]c2ccccc12 [Dolasetron] (compound 10 µM) : -0.46

// phospho-S6 immunofluorescence (z-score) value for NC(=O)C(c1ccccc1)(c1ccccc1)[C@@H]1CCN(CCc2ccc3c(c2)CCO3)C1 [Darifenacin (hydrobromide)] (compound 10 µM) : 0.03

// phospho-S6 immunofluorescence (z-score) value for Clc1ccccc1CN1CCc2sccc2C1 [Ticlopidine (hydrochloride)] (compound 10 µM) : -0.63

// phospho-S6 immunofluorescence (z-score) value for O=C(COc1ccc(C(=O)c2ccccc2)cc1)NC1CCN(Cc2ccccc2)CC1 [AdipoRon] (compound 10 µM) : -1.92

// phospho-S6 immunofluorescence (z-score) value for O=C(O)CCc1ccc(NCc2cccc(Oc3ccccc3)c2)cc1 (compound 10 µM) : 1.24

// phospho-S6 immunofluorescence (z-score) value for Cc1sc(C)c(C(=O)NC2(c3ccc(C(=O)O)cc3)CC2)c1Cc1ccc(C(F)(F)F)cc1 (compound 10 µM) : 0.73

// phospho-S6 immunofluorescence (z-score) value for CCN(CC)Cc1ccc(C(=O)N(CCc2ccccc2OC)[C@@H]2CCNC2)cc1 (compound 10 µM) : 0.12

// phospho-S6 immunofluorescence (z-score) value for CN1CCC(=C2c3ccccc3CCn3c(C=O)cnc32)CC1 [Alcaftadine] (compound 10 µM) : -0.66

// phospho-S6 immunofluorescence (z-score) value for Cc1ccc(/C(=C\CN2CCCC2)c2cccc(/C=C/C(=O)O)n2)cc1 [Acrivastine] (compound 10 µM) : 0.62

// phospho-S6 immunofluorescence (z-score) value for CC(C)c1cc(-c2ccc(F)c3ccccc23)nc(N)n1 (compound 10 µM) : 1.08

// phospho-S6 immunofluorescence (z-score) value for Cc1c(CC(=O)O)c2cccnc2n1Cc1ccc(S(C)(=O)=O)cc1C(F)(F)F [Fevipiprant] (compound 10 µM) : -0.9

// phospho-S6 immunofluorescence (z-score) value for O=C1CC2(CCCC2)CC(=O)N1CCCCN1CCN(c2ncccn2)CC1 [Buspirone (hydrochloride)] (compound 10 µM) : 0.69

// phospho-S6 immunofluorescence (z-score) value for c1cnc(NCc2ccc(CNc3ncccn3)cc2)nc1 (compound 10 µM) : -0.11

// phospho-S6 immunofluorescence (z-score) value for C[C@H]1CN(C[C@H](Cc2ccccc2)C(=O)NCC(=O)O)CC[C@@]1(C)c1cccc(O)c1 [Alvimopan (dihydrate)] (compound 10 µM) : -0.86
